Data provenance: the supplement of paper PMC6897291

Tested on: U-2932
procedureText: growth inhibition by drug plus 177Lu-lilotomab satetraxetan (1 - RLU/untreated control) (fraction); higher = stronger inhibition
cond: 1000 nM; time (day): 6; 177Lu-lilotomab satetraxetan 1 ug/ml
reportedProperty: growth inhibition by drug plus 177Lu-lilotomab satetraxetan

cpdSmiles | assayedSystem | assayValue
Cc1[nH]c(/C=C2\C(=O)Nc3ccc(S(=O)(=O)Cc4c(Cl)cccc4Cl)cc32)c(C)c1C(=O)N1CCC[C@@H]1CN1CCCC1 | U-2932 | -0.00631
CNC(=O)[C@@H](NC(=O)[C@H](CC(C)C)[C@H](O)C(=O)NO)C(C)(C)C | U-2932 | 0.157
CC(C)C[C@H](NC(=O)[C@H](Cc1ccccc1)NC(=O)c1cnccn1)B(O)O | U-2932 | 0.988
O=C(O)CC[C@H]1CC[C@@](c2cc(F)ccc2F)(S(=O)(=O)c2ccc(Cl)cc2)CC1 | U-2932 | 0.142

###

System: U-2932
procedureText: growth inhibition by drug plus 177Lu-lilotomab satetraxetan (1 - RLU/untreated control) (fraction); higher = stronger inhibition
cond: 10 nM; time (day): 4; 177Lu-lilotomab satetraxetan 1 ug/ml
Where a name gives a salt, the structure may show the parent alone.
reportedProperty: growth inhibition by drug plus 177Lu-lilotomab satetraxetan

compound | assayValue
CNC(=O)c1ccccc1Sc1ccc2c(/C=C/c3ccccn3)n[nH]c2c1 | 0.0444
Cn1cncc1[C@@](N)(c1ccc(Cl)cc1)c1ccc2c(c1)c(-c1cccc(Cl)c1)cc(=O)n2C [Tipifarnib (Zarnestra)] | 0.0674
Cc1[nH]c(/C=C2\C(=O)Nc3ccc(S(=O)(=O)N(C)c4cccc(Cl)c4)cc32)c(C)c1C(=O)N1CCN(C)CC1 | 0.0537
Nc1nc(Nc2ccc(S(N)(=O)=O)cc2)nn1C(=O)c1c(F)cccc1F | 0.07
C[C@H](NC(=O)Cc1cc(F)cc(F)c1)C(=O)N[C@H](C(=O)OC(C)(C)C)c1ccccc1 | 0.0223
COC1=CC(c2cc3ccccc3[nH]2)=N/C1=C\c1[nH]c(C)cc1C [Obatoclax mesylate (GX15-070)] | 0.0671
COc1cc2ncnc(Nc3ccc(F)c(Cl)c3)c2cc1NC(=O)/C=C/CN1CCCCC1 | -0.0275
O=C(O)c1ccc2cc(-c3ccc(O)c(C45CC6CC(CC(C6)C4)C5)c3)ccc2c1 | 0.127
COc1cc(N2CCC(N3CCN(C)CC3)CC2)ccc1Nc1ncc(Cl)c(Nc2ccccc2S(=O)(=O)C(C)C)n1 | 0.0234
COc1ccc(CNC(=O)Nc2ncc([N+](=O)[O-])s2)cc1 | -0.0169
N#Cc1ccc(NC(=O)Nc2ccccc2Br)c2n[nH]nc12 | 0.065
O=C(O)CCCc1ccccc1 [4-Phenylbutyrate] | 0.105
COc1cc2ncnc(Nc3cccc(Br)c3)c2cc1OC | -0.00153
CN1C(=O)C(Cc2c[nH]c3ccccc23)NC1=S (stereo not drawn) | -0.0156
C[C@H](NC(=O)Cc1cc(F)cc(F)c1)C(=O)N[C@@H]1C(=O)N(C)c2ccccc2-c2ccccc21 | -0.041
COc1cc2ncnc(-n3nc(-c4ccccn4)nc3N)c2cc1OC | 0.105
Cc1cn(-c2cc(NC(=O)c3ccc(C)c(Nc4nccc(-c5cccnc5)n4)c3)cc(C(F)(F)F)c2)cn1 | -0.0287
C[C@]1(O)C[C@@H](c2nc(-c3ccc4ccc(-c5ccccc5)nc4c3)c3c(N)nccn32)C1 | -0.0138

###

Test system: U-2932
procedureText: growth inhibition by drug plus 177Lu-lilotomab satetraxetan (1 - RLU/untreated control) (fraction); higher = stronger inhibition
cond: 1000 nM; time (day): 6; 177Lu-lilotomab satetraxetan 1 ug/ml
Would you please tag the item True when its growth inhibition by drug plus 177Lu-lilotomab satetraxetan is 0.8 or above, and False when it is below?

compound | assayedSystem | labelClass
CC(C)OC(=O)C1=CN(C(=O)c2ccc(F)c(F)c2)CC(C)(C)c2c1[nH]c1ccccc21 | U-2932 | False
Cc1cc(O)c2c(c1)C(=O)c1cccc(O)c1C2=O | U-2932 | False
O=c1oc2c(O)c(O)cc3c(=O)oc4c(O)c(O)cc1c4c23 | U-2932 | False
Nc1ccc(-c2ccc3ncc4ccc(=O)n(-c5cccc(C(F)(F)F)c5)c4c3c2)cn1 | U-2932 | True
COc1ccc(CNC(=O)Nc2ncc([N+](=O)[O-])s2)cc1 | U-2932 | False
O=C(CCCCCCC(=O)Nc1cccnc1)NO [Pyroxamide] | U-2932 | False
CCN(CC)CCCCNc1ncc2cc(-c3cc(OC)cc(OC)c3)c(NC(=O)NC(C)(C)C)nc2n1 | U-2932 | False
O=C(/C=C/C#Cc1cccc(NS(=O)(=O)c2ccccc2)c1)NO | U-2932 | True
C=C1/C(=C\C=C2/CCC[C@]3(C)[C@@H]([C@H](C)/C=C/[C@H](C)C(C)C)CC[C@@H]23)C[C@@H](O)C[C@@H]1O | U-2932 | False
O=C(CCc1ccc(O)cc1)c1c(O)cc(O)cc1O [Phloretin (Dihydronaringenin)] | U-2932 | False
Cn1nnc2c(C(N)=O)ncn2c1=O [Temozolomide] | U-2932 | False
COc1nc(-c2ccc3c(c2)OCO3)n(-c2ccc(NC(=O)CSc3ccccc3)cc2)n1 | U-2932 | False
C[C@]12CC[C@@H]3c4ccc(O)cc4CC[C@H]3[C@@H]1CCC2=O | U-2932 | False
CC(C)C[C@H](NC(=O)CNC(=O)c1cc(Cl)ccc1Cl)B1OC(=O)C(CC(=O)O)(CC(=O)O)O1 | U-2932 | True
O=C(O)c1ccc2cc(-c3ccc(O)c(C45CC6CC(CC(C6)C4)C5)c3)ccc2c1 | U-2932 | True
COc1ncc(-c2ccc3nccc(-c4ccnnc4)c3c2)cc1NS(=O)(=O)c1ccc(F)cc1F | U-2932 | True
COc1ccc(-c2ccc3c(N4CCOC[C@@H]4C)nc(N4CCOC[C@@H]4C)nc3n2)cc1CO | U-2932 | True

###

Tested on: RIVA
procedureText: growth inhibition by drug plus 177Lu-lilotomab satetraxetan (1 - RLU/untreated control) (fraction); higher = stronger inhibition
cond: 100 nM; time (day): 3; 177Lu-lilotomab satetraxetan 0.5 ug/ml
reportedProperty: growth inhibition by drug plus 177Lu-lilotomab satetraxetan

compound | assayValue
CC(C)OC(=O)C1=CN(C(=O)c2ccc(F)c(F)c2)CC(C)(C)c2c1[nH]c1ccccc21 | 0.546
CCN(CC)CCCCNc1ncc2cc(-c3cc(OC)cc(OC)c3)c(NC(=O)NC(C)(C)C)nc2n1 | 0.393
C[C@]12CC[C@@H]3c4ccc(O)cc4CC[C@H]3[C@@H]1CC[C@@H]2O [Estradiol] | 0.584
Cc1csc(-c2nnc(Nc3ccc(Oc4ncccc4-c4ccnc(N)n4)cc3)c3ccccc23)c1 | 0.496
NC(=O)Nc1sc(-c2ccc(F)cc2)cc1C(N)=O | 0.259
N#Cc1ccc(C(c2ccc(C#N)cc2)n2cncn2)cc1 [Letrozole] | 0.319
O=C(O)C(Cc1c[nH]c2ccccc12)N1C(=O)c2ccccc2C1=O (centres undefined) | 0.275
CN(C)Cc1ccc(-c2nc3cccc4c3n2CCNC4=O)cc1 | 0.585
O=C(NCCCNc1nc(Nc2cccc(NC(=O)N3CCCC3)c2)ncc1I)c1cccs1 | 0.547
Nc1nccc(Oc2ccc(NC(=O)c3c[nH]cc(-c4ccc(F)cc4)c3=O)cc2F)c1Cl | 0.364
CN[C@@H](C)C(=O)N[C@H]1CN(C(=O)CC(C)C)CC[C@H]2CC[C@@H](C(=O)NC(c3ccccc3)c3ccccc3)N2C1=O | 0.456
Cn1cc(-c2ccc3nnc(C(F)(F)c4ccc5ncccc5c4)n3n2)cn1 | 0.342
C[C@]12CC[C@@H]3c4ccc(O)cc4CC[C@H]3[C@@H]1CCC2=O [Estrone] | 0.271
CN(C)CCCCSC(=N)N | 0.259
CCN1CCN(Cc2ccc(-c3cc4c(N[C@H](C)c5ccccc5)ncnc4[nH]3)cc2)CC1 | 0.314
Cc1[nH]c2ccccc2c1CCNCc1ccc(/C=C/C(=O)NO)cc1 [Panobinostat] | 0.987
CNC(=O)c1ccccc1Sc1ccc2c(/C=C/c3ccccn3)n[nH]c2c1 [Axitinib] | 0.439
Cc1oc(S(=O)(=O)N2CCCCC2)cc1NC(=O)Nc1ccccc1 | 0.511
CC[C@H](CO)Nc1nc(NCc2ccccc2)c2ncn(C(C)C)c2n1 [Roscovitine (Seliciclib, CYC202)] | 0.49

###

Test system: U-2932
procedureText: growth inhibition by drug plus 177Lu-lilotomab satetraxetan (1 - RLU/untreated control) (fraction); higher = stronger inhibition
cond: 1000 nM; time (day): 3; 177Lu-lilotomab satetraxetan 1 ug/ml
Where a name gives a salt, the structure may show the parent alone.
Would you please tag the item class 1 when its growth inhibition by drug plus 177Lu-lilotomab satetraxetan is 0.1 or above, and class 0 when it is below?

compound | assayedSystem | labelClass
N#CCNC(=O)c1ccc(-c2ccnc(Nc3ccc(N4CCOCC4)cc3)n2)cc1 | U-2932 | class 1
O=C(/C=C/C#Cc1cccc(NS(=O)(=O)c2ccccc2)c1)NO | U-2932 | class 1
CC(C)Oc1cc(Nc2nc(N[C@@H](C)c3ccc(F)cn3)ncc2Cl)n[nH]1 | U-2932 | class 1
O=C(O)CCc1ccc(NCc2cccc(Oc3ccccc3)c2)cc1 | U-2932 | class 0
CCc1c2c(nc3ccc(OC(=O)N4CCC(N5CCCCC5)CC4)cc13)-c1cc3c(c(=O)n1C2)COC(=O)[C@]3(O)CC [Irinotecan HCl Trihydrate (Campto)] | U-2932 | class 1
OCCn1cc(-c2ccc3c(c2)CC/C3=N\O)c(-c2ccncc2)n1 | U-2932 | class 0
CCN(CC)CCNC(=O)c1c(C)[nH]c(/C=C2\C(=O)Nc3ccc(F)cc32)c1C [Sunitinib Malate (Sutent)] | U-2932 | class 0
Cc1cnc(Nc2ccc(OCCN3CCCC3)cc2)nc1Nc1cccc(S(=O)(=O)NC(C)(C)C)c1 | U-2932 | class 1
O=c1cc(N2CCOCC2)oc2c(-c3ccccc3)cccc12 | U-2932 | class 0
COc1ccc(COc2cc3oc(=O)c4cc(C(C)O)ccc4c3cc2OC)cc1 (configuration not stated) | U-2932 | class 0
CCOc1cc(C(=O)Nc2ccc(Cl)c(-c3nc4ccccc4[nH]3)c2)cc(OCC)c1OCC | U-2932 | class 1
COc1cc(OC2CCN(C)CC2)ccc1Nc1ncc2c(n1)n(C1CCCC1)c(=O)n2C | U-2932 | class 0
CC[C@@]1(O)C(=O)OCc2c1cc1n(c2=O)Cc2cc3c(CN(C)C)c(O)ccc3nc2-1 [Topotecan HCl] | U-2932 | class 1
Cn1cncc1[C@@](N)(c1ccc(Cl)cc1)c1ccc2c(c1)c(-c1cccc(Cl)c1)cc(=O)n2C [Tipifarnib (Zarnestra)] | U-2932 | class 1
COc1cc2c(N3CCN(C(=O)Nc4ccc(OC(C)C)cc4)CC3)ncnc2cc1OCCCN1CCCCC1 | U-2932 | class 0
CCc1cc(Nc2nccc(-c3c(-c4ccc(OC)c(C(=O)Nc5c(F)cccc5F)c4)nc4ccccn34)n2)c(OC)cc1N1CCC(N2CCN(S(C)(=O)=O)CC2)CC1 | U-2932 | class 0
O=c1c(O)c(-c2ccc(O)c(O)c2)oc2cc(O)cc(O)c12 [Quercetin (Sophoretin)] | U-2932 | class 0
CC(C)c1onc(-c2c(Cl)cccc2Cl)c1COc1ccc(/C=C/c2cccc(C(=O)O)c2)c(Cl)c1 | U-2932 | class 0
C[C@]1(c2nc3c(C(N)=O)cccc3[nH]2)CCCN1 | U-2932 | class 0
COc1c(C)c2c(c(O)c1C/C=C(\C)CCC(=O)O)C(=O)OC2 [Mycophenolic (Mycophenolate)] | U-2932 | class 1
N#Cc1ccc(COC[C@H]2O[C@@H](n3c(NCc4ccc(Cl)c(Cl)c4)nc4c(N)ncnc43)[C@H](O)[C@@H]2O)cc1 | U-2932 | class 1
COc1cc(Nc2ncc(F)c(Nc3ccc4c(n3)N(COP(=O)(O)O)C(=O)C(C)(C)O4)n2)cc(OC)c1OC | U-2932 | class 0
CCOC(=O)[C@@H](C)Oc1cccc2c(=O)n(CC(=O)Nc3ccc4c(c3)OCCO4)ccc12 | U-2932 | class 0
Cc1ccc(-n2nc(C(C)(C)C)cc2NC(=O)Nc2ccc(OCCN3CCOCC3)c3ccccc23)cc1 | U-2932 | class 1
C[C@@H](O[C@H]1OCCN(Cc2n[nH]c(=O)[nH]2)[C@H]1c1ccc(F)cc1)c1cc(C(F)(F)F)cc(C(F)(F)F)c1 [Aprepitant (MK-0869)] | U-2932 | class 0
CC[C@@H]1C(=O)N(C)c2cnc(Nc3ccc(C(=O)NC4CCN(C)CC4)cc3OC)nc2N1C1CCCC1 | U-2932 | class 1
CN1CCN(c2ccc3nc(-c4c(N)c5c(F)cccc5[nH]c4=O)[nH]c3c2)CC1 | U-2932 | class 0
Cc1nnc(C(C)C)n1C1C[C@H]2CC[C@@H](C1)N2CC[C@H](NC(=O)C1CCC(F)(F)CC1)c1ccccc1 (stereo in doubt) | U-2932 | class 0
Cc1nc(Nc2ncc(C(=O)Nc3c(C)cccc3Cl)s2)cc(N2CCN(CCO)CC2)n1 | U-2932 | class 1
COc1nc(C)cnc1NS(=O)(=O)c1cccnc1-c1ccc(-c2nnco2)cc1 [Zibotentan (ZD4054)] | U-2932 | class 0
C[C@]12CC[C@H](O)CC1=CC[C@@H]1[C@@H]2CC[C@]2(C)C(c3cccnc3)=CC[C@@H]12 | U-2932 | class 0
O=C(O)c1ccc2cc(-c3ccc(O)c(C45CC6CC(CC(C6)C4)C5)c3)ccc2c1 | U-2932 | class 1
